B1: LINE1-full (parent)
chain: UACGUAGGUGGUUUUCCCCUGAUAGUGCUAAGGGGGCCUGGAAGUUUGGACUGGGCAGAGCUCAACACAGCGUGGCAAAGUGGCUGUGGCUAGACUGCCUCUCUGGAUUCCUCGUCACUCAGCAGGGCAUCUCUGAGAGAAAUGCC

- Variants of: B1
- assay overview: self-cleavage, relative activity (ratio to wild type); higher = more cleavage; in vitro, sequencing; the parent is a self-cleaving ribozyme
value kind: self-cleavage

    mutation_list  result
 0      C28U A77G    1.38
 1      C38A U52C    0.99
 2     G72C U108G    0.96
 3      U73C U96C    0.11
 4      U91C A94U     0.2
 5       U9G U13G    1.31
 6      A77C U91A    0.38
 7     C76U G137U    1.87
 8    C116A A138G    1.52
 9     G32A A142G    1.22
10      A42G A43G    1.17
11     C99A U143C    1.03
12     C63U U100C    0.99
13      U23A U85C    0.28
14     A94U A121G    0.52
15     C37U A138G     1.2
16     U45C C113A    2.37
17     G41U U115A    1.29
18      A43U U46C    1.23
19     A31G A140G    1.79
20      A77G G89A    0.03
21    U100A A124C    1.28
22           G44C    1.22
23      A64U A94G    0.09
24    G127A U130C    1.31
25     U91C C118U    0.67
26      G74A A79G     0.8
27      A31U G36U    0.81
28    U100G A138G    1.27
29      U45A U52C    1.46
30     U45C A142G    1.26
31       A2G A79G    0.87
32     U91C G125A    0.32
33      A65G U73A    0.04
34      A59G G75A    0.04
35     A50G A142G     0.9
36      U23C A65C       0
37     U47C U115A    1.75
38      U9C A117C    1.41
39      U20C A79U     1.7
40     C90U U119C    0.03
41     U87G A138G    0.14
42     G83A U134C    1.13
43    G122U A142G    1.52
44      U62C A64U    0.05
45     C84U A142G    0.12

// data source = the RNAGym collection of RNA variant scans (doi:10.7554/elife.90254)
